Consider the following molecules; for each one, report its melting point.

> print(dat)
                                   molecule         result
1  CC(C)CCC[C@@H](C)C1CCC2[C@@H]3CC=C4C[C@@H](OC(=O)N5CCc6ccccc65)CC[C@]4(C)[C@H]3CC[C@]12C (some centres unmarked)  157 to 159 °C
2  O=C(NC1Cc2ccccc2C1)OCc1ccccc1 [Compound 3c]  159 to 161 °C
3  CC(C)CCC[C@@H](C)C1CCC2[C@@H]3CC=C4C[C@@H](OC(=O)NCCn5nccn5)CC[C@]4(C)[C@H]3CC[C@]12C (some centres unmarked)  135 to 139 °C
4  CCNC(=O)NCCCc1ccccc1 [Compound 4g, 1-ethyl-3-(3-phenylpropyl)urea]          48 °C
5  CCOC(=O)NCCc1ccc(Br)cc1 [Compound 11d, ethyl 4-bromophenethylcarbamate]    63 to 65 °C
6  CC(C)CCC[C@@H](C)C1CCC2[C@@H]3CC=C4C[C@@H](OC(=O)NCCc5ccccc5)CC[C@]4(C)[C@H]3CC[C@]12C (some centres unmarked)    74 to 76 °C
7  CC(C)CCC[C@@H](C)C1CCC2[C@@H]3CC=C4C[C@@H](OC(=O)NCCc5ccc(Br)cc5)CC[C@]4(C)[C@H]3CC[C@]12C (some centres unmarked)  142 to 145 °C
8    CC(C)(C)OC(=O)NCCn1nccn1 [Compound 5e]    64 to 66 °C

Field: melting point. Fill in for each record below.
1. COc1ccc(CCNC(=O)O[C@@H]2C[C@H](C)CC[C@H]2C(C)C)cc1 [Compound 12a]
2. CCSC(=O)NC1Cc2ccccc2C1 [Compound 3b]
3. CC(C)CCC[C@@H](C)C1CCC2[C@@H]3CC=C4C[C@@H](OC(=O)NC5Cc6ccccc6C5)CC[C@]4(C)[C@H]3CC[C@]12C (some centres unmarked)
4. CC(C)[C@@H]1CC[C@@H](C)C[C@H]1OC(=O)NCCCc1ccccc1 [Compound 4a]
5. CCNC(=O)NCCn1nccn1 [Compound 5g]

Reply |
1. 95 to 98 °C
2. 107 to 110 °C
3. 114 to 116 °C
4. 75 to 78 °C
5. 109 °C

----------
MEASURED PROPERTY: melting point

> print(dat)
                                   molecule         result
1  CC(C)[C@@H]1CC[C@@H](C)C[C@H]1OC(=O)NCCc1ccccc1    84 to 86 °C
2  CCSC(=O)NCCc1c[nH]c2ccccc12 [Compound 10b]    68 to 70 °C
3  Nc1ccc(CCNC(=O)OCc2ccccc2)cc1 [Compound 8c, benzyl 4-aminophenethylcarbamate]    70 to 73 °C
4  CC(C)CCC[C@@H](C)C1CCC2[C@@H]3CC=C4C[C@@H](OC(=O)NCCCc5ccccc5)CC[C@]4(C)[C@H]3CC[C@]12C (stereo partly drawn)    87 to 89 °C
5  CC(C)[C@@H]1CC[C@@H](C)C[C@H]1OC(=O)NC1Cc2ccccc2C1  167 to 170 °C
6  CCNC(=S)N1CCc2ccccc21 [Compound 6h, N-ethylindoline-1-carbothioamide]    88 to 91 °C
7  CC(C)[C@H]1CC[C@H](C)C[C@@H]1OC(=O)NCCc1ccccn1    57 to 59 °C
8  CC(C)[C@@H]1CC[C@@H](C)C[C@H]1OC(=O)NCCc1ccc(Br)cc1 [Compound 11a]  104 to 106 °C

# context switch: different molecule, same melting point
Ask | What value of melting point has been recorded for this entry: "CC(C)(C)OC(=O)NC1Cc2ccccc2C1"
Reply | 51 to 53 °C
